Origin of measurements: ChEMBL document CHEMBL5727147

Target: Serine/threonine-protein kinase Chk1 (Homo sapiens)
Sequence (O14757 whole entry): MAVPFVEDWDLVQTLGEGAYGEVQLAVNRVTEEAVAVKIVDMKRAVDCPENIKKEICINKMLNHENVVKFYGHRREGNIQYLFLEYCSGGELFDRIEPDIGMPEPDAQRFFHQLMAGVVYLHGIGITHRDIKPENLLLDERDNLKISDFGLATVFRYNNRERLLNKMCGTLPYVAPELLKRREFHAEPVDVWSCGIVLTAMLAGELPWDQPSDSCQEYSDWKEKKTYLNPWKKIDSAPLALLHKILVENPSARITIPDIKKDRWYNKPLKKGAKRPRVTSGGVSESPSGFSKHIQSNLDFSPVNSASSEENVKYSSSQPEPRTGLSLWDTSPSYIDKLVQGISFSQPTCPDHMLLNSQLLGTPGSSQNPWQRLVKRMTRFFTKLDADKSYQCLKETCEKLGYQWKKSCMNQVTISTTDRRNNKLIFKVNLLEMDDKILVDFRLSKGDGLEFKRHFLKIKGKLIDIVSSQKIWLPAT
Experiment: Kinase Inhibiting Activity Assay: Chk-1 Kinase Inhibiting ActivityThe compounds of the invention were tested for activity against Chk-1 kinase using the materials and protocols set out below.Reaction Buffer:Base Reaction buffer: 20 mM Hepes (pH 7.5), 10 mM MgCl2, 1 mM EGTA, 0.02% Brij35, 0.02 mg/ml BSA, 0.1 mM Na3VO4, 2 mM DTT, 1% DMSO*Required cofactors are added individually to each kinase reactionReaction Procedure:(i) Prepare indicated substrate in freshly prepared Base Reaction Buffer(ii) Deliver any required cofactors to the substrate solution above(iii) Deliver indicated kinase into the substrate solution and gently mix(iv) Deliver compounds in DMSO into the kinase reaction mixture(v) Deliver 33P-ATP (specific activity 0.01 μCi/μl final) into the reaction mixture to initiate the reaction.(vi) Incubate kinase reaction for 120 minutes at room temperature(vii) Reactions are spotted onto P81 ion exchange paper (Whatman #3698-915)(viii) Wash filters extensively in 0.1% phosphoric acid.(ix) Dry filters and measure counts in scintillation counterKinase Information:CHK-1 Genbank Accession # AF016582Recombinant full length construct, N-terminal GST tagged, purified from insect cells.No special measures were taken to activate this kinase.Final concentration in assay=0.5 nMSubstrate: CHKtidePeptide sequence: [[…]]Final concentration in assay=20 μM
OBSERVATION TYPE: IC50 (pM)
Give your result in pM as a bare value.

query: Form field - read-out: IC50; system: Serine/threonine-protein kinase Chk1 (Homo sapiens); submitted item: COc1cc(C2CCCCN2C)ccc1-c1cc(Nc2cnc(C#N)cn2)n[nH]1 (stereo not drawn)
result: 510

query: Query for Serine/threonine-protein kinase Chk1 (Homo sapiens): what IC50 does the record show for COc1cc(CNC(=O)C2CC2)ccc1-c1cc(Nc2cnc(C#N)cn2)n[nH]1 ?
result: 590
